- Experimental system: Recombinant human soluble guanylate cyclase (sGC), alpha 1 / beta 1 subunits, heme-free (Homo sapiens, UniProt Q02108+Q02153)
- Construct: histidine tag (C); made in house; host or cells: Sf9 insect cells (baculovirus coinfection)
- Sequence (Q02108 whole entry partner): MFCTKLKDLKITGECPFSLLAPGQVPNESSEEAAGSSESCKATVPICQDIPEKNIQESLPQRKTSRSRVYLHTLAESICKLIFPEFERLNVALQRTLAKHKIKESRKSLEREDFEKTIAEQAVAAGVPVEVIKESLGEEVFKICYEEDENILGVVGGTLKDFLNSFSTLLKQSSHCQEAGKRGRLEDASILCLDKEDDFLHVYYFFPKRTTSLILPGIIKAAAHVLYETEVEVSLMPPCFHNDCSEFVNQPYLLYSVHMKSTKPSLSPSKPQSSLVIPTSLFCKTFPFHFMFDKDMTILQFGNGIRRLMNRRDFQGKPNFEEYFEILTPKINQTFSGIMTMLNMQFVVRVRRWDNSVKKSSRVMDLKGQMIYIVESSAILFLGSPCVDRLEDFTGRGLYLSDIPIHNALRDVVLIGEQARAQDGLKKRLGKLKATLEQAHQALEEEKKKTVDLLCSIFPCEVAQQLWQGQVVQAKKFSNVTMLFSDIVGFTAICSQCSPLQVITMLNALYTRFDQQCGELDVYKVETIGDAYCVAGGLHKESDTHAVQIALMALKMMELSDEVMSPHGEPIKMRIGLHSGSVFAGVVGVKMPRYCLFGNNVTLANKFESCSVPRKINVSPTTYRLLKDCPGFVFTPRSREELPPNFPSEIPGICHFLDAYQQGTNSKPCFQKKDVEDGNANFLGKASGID
- Sequence (Q02153 whole entry): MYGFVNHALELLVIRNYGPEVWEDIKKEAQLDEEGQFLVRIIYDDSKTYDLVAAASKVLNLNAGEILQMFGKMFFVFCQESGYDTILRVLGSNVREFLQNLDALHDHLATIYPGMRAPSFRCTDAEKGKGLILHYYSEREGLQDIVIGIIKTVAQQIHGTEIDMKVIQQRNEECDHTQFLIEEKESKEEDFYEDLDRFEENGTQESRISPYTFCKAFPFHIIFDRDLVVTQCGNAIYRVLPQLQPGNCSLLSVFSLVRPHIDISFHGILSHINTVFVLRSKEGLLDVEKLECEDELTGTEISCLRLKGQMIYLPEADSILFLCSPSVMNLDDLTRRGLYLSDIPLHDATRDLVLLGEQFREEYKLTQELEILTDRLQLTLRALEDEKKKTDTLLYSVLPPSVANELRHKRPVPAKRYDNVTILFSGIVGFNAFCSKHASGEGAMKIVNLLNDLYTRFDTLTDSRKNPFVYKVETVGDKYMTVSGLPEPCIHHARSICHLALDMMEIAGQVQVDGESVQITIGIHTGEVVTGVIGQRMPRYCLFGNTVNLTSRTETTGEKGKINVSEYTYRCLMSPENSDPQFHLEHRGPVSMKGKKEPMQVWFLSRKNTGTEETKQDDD
- Protocol text: Molecular assay: cGMP formation by heme-free recombinant sGC (CisBio cGMP detection kit)
- Assay type: biochemical
- Test context: 300 pM heme-free sGC, 37° C., 60 min, cGMP readout; read-out: EC50 nM, Activity of Compounds in Molecular Assay
Exam item: assign rule met to entries whose EC50 is below 30 nM and rule not met to entries at or above 30 nM. Note that a value of exactly 30 nM receives rule not met.

Compound: Cc1ccc(OCc2ccc(C(=O)N3CCCCC3)cc2C)c(-c2csc(N3CC4CCC(C3)C4C(=O)O)n2)c1 (stereo not shown)
Answer label: rule met

Compound: Cc1ccc(OCc2ccc(CN3CCN(S(C)(=O)=O)CC3)cc2C)c(-c2csc(N3CCC(C(=O)O)CC3)n2)c1
Answer label: rule not met

Compound: Cc1ccc(OCc2ccc(CN3CCS(=O)(=O)CC3)cc2C)c(-c2csc(N3CCCC(C(=O)O)CC3)n2)c1 (stereo not shown)
Answer label: rule met

Compound: Cc1cc(C(=O)N2CCCCC2)ccc1COc1ccccc1-c1csc(N2CCC(C(=O)O)C(C)C2)n1 (stereo not shown)
Answer label: rule not met

Compound: Cc1cc(CN2CCOCC2)ccc1COc1ccc(F)cc1-c1csc(N2CCC(C(=O)O)CC2)n1
Answer label: rule not met

Compound: Cc1cc(C(=O)N2CCCCC2)ccc1COc1ccc(Cl)cc1-c1csc(C2=CCC(C(=O)O)CC2)n1 (stereo not shown)
Answer label: rule not met

----------
- Experimental system: Recombinant human soluble guanylate cyclase (sGC), alpha 1 / beta 1 subunits, heme-free (Homo sapiens, UniProt Q02108+Q02153)
- Construct: histidine tag (C); made in house; host or cells: Sf9 insect cells (baculovirus coinfection)
- Protocol text: Molecular assay: cGMP formation by heme-free recombinant sGC (CisBio cGMP detection kit)
- Format: biochemical
- Test context: 300 pM heme-free sGC, 37° C., 60 min, cGMP readout; read-out: EC50 nM, Activity of Compounds in Molecular Assay
Readout type: EC50 (nM)

Compound: COCCN(C)Cc1ccc(COc2ccc(C)cc2-c2csc(N3CCC(C(=O)O)CC3)n2)c(C#N)c1
Readout type: EC50
Measurement: 260
//
Compound: Cc1ccc(OCc2ccc(C(=O)N3CCCCC3)cc2C)c(-c2csc(N3CC4C(C3)C4C(=O)O)n2)c1 (stereo not shown)
Readout type: EC50
Measurement: 390
//
Compound: Cc1cc(CN2CCOCC2)ccc1COc1ccc(C#N)cc1-c1csc(N2CC3CCC(C2)C3C(=O)O)n1 (stereo not shown)
Readout type: EC50
Measurement: 7100
//
Compound: Cc1cc(CN2CCOCC2)ccc1COc1ccc(Cl)cc1-c1csc(N2CC3C(C2)C3C(=O)O)n1 (stereo not shown)
Readout type: EC50
Measurement: 390

----------
- Protocol text: Assessment of solubility: HT solubility in pION buffer, UV spectrophotometry
- Test context: pION system solution buffer, pH 4.5, pH 4.5, aqueous buffer, kinetic from dmso stock, Solubility (pH 4.5), pH 4.5 buffer, 16-19 h incubation, 1.0% DMSO
Readout type: log10(solubility) (log10 of the value in µg/mL)

Molecule: Cc1ccc(OCc2ccc(CN3CCOCC3)cc2C)c(-c2csc(N3C[C@H]4CC[C@@H](C3)[C@@]4(C)C(=O)O)n2)c1 [Compound 270]
log10(solubility): 1.23

Molecule: Cc1cc(CN2CCS(=O)(=O)CC2)ccc1COc1ccccc1-c1csc(N2CCC(C(=O)O)C(C)C2)n1 (centres unmarked) [Compound 107]
log10(solubility): -0.19

Molecule: Cc1cc(CN2CCS(=O)(=O)CC2)ccc1COc1ccccc1-c1csc(N2CCC(C(=O)O)CC2)n1 [Compound 272]
log10(solubility): 1.15

Molecule: Cc1ccc(OCc2ccc(C(=O)N3CC[C@H](O)C3)cc2C)c(-c2csc(N3C[C@H]4CC[C@@H](C3)[C@H]4C(=O)O)n2)c1 [Compound 313]
log10(solubility): 0.11

Molecule: Cc1cc(C(=O)N2CCCCC2)ccc1COc1ccc(C#N)cc1-c1csc(N2CCC(C(=O)O)CC2C)n1 (centres unmarked) [Compound 85]
log10(solubility): -0.46

Molecule: Cc1ccc(OCc2ccc(CN3CCN(C(=O)C4CC4)CC3)cc2C#N)c(-c2csc(N3CCC(C(=O)O)CC3)n2)c1 [Compound 352]
log10(solubility): 1.34

Molecule: Cc1ccc(OCc2ccc(CN3CCS(=O)(=O)CC3)cc2C)c(-c2csc(N3CCC(C(=O)O)CC3C(F)(F)F)n2)c1 (centres unmarked) [Compound 153]
log10(solubility): -0.70

Molecule: Cc1ccc(OCc2ccc(CN3CCN(C(=O)C4CC4)CC3)cc2C)c(-c2csc(N3C[C@H]4CC[C@@H](C3)[C@H]4C(=O)O)n2)c1 [Compound 228]
log10(solubility): 0.79

Molecule: Cc1ccc(OCc2ccc(CN3CCN(C)C(=O)C3)cc2C)c(-c2csc(N3CC4CCC(C3)C4C(=O)O)n2)c1 (centres unmarked) [Compound 289]
log10(solubility): 0.18

----------
This listing pairs compounds with measured EC50.
- Experimental system: human soluble guanylate cyclase alpha 1 and beta 1 subunits (sGC) stably expressed in Chinese hamster ovary cells (Homo sapiens, UniProt Q02108+Q02153)
- Construct: expressed in transfected cells; host or cells: Chinese hamster ovary cells, stably transfected
- Protocol text: sGC cellular activator assay: cGMP in CHO cells expressing human sGC, preincubated with ODQ
- Type: cell-based
- Test context: 40 microM ODQ preincubation, 30 min at room temperature, presence or absence of 50% human serum not given, read-out: EC50 nM, Activity of Compounds in Cellular Assay
Readout type: EC50

Smiles entry: Cc1ccc(OCc2ccc(CN3CCN(C)C(=O)C3)cc2C#N)c(-c2csc(N3C[C@H]4CC[C@@H](C3)[C@H]4C(=O)O)n2)c1
Readout type: EC50
Measurement: 3.8 nM

Smiles entry: Cc1ccc(OCc2ccc(C(=O)N(C)CC#N)cc2C)c(-c2csc(N3C[C@H]4CC[C@@H](C3)[C@H]4C(=O)O)n2)c1
Readout type: EC50
Measurement: 52 nM

Smiles entry: Cc1ccc(OCc2ccc(CN(C)[C@@H]3CCS(=O)(=O)C3)cc2C)c(-c2csc(N3C[C@H]4CC[C@@H](C3)[C@H]4C(=O)O)n2)c1
Readout type: EC50
Measurement: 10 nM

Smiles entry: Cc1ccc(OCc2ccc(C(=O)N3CCn4ncnc4C3)cc2C)c(-c2csc(N3C[C@H]4CC[C@@H](C3)[C@H]4C(=O)O)n2)c1
Readout type: EC50
Measurement: 14 nM

Smiles entry: Cc1ccc(OCc2ccc(C(=O)N(C)CCC(C)(C)O)cc2C)c(-c2csc(N3C[C@H]4CC[C@@H](C3)[C@H]4C(=O)O)n2)c1
Readout type: EC50
Measurement: 41 nM

Smiles entry: Cc1ccc(OCc2ccc(CN3CCS(=O)(=O)CC3)cc2C)c(-c2csc(N3C[C@H]4C[C@@H](C3)[C@H]4C(=O)O)n2)c1
Readout type: EC50
Measurement: 57 nM

----------
- Protocol text: Assessment of solubility: HT solubility in pION buffer, UV spectrophotometry
- Test context: pION system solution buffer, pH 4.5, pH 4.5, aqueous buffer, kinetic from dmso stock, Solubility (pH 4.5), pH 4.5 buffer, 16-19 h incubation, 1.0% DMSO
Assign label 1 to entries whose solubility meets or exceeds 0.5 µg/mL; assign label 0 to the rest.

Molecule: COc1cc(CN2CCOCC2)ccc1COc1ccc(C)cc1-c1csc(N2CCC(C(=O)O)CC2)n1
Answer label: label 1
//
Molecule: Cc1ccc(OCc2ccc(C(=O)N3CCOCC3)cc2C#N)c(-c2csc(N3C[C@H]4CC[C@@H](C3)[C@H]4C(=O)O)n2)c1
Answer label: label 0
//
Molecule: Cc1cc(C(=O)N2CCCCC2)ccc1COc1c(C)cccc1-c1csc(N2C3CCC2CC(C(=O)O)C3)n1 (stereo not shown)
Answer label: label 1
//
Molecule: Cc1ccc(OCc2ccc(C(=O)N(C)CC3(CO)CC3)cc2C)c(-c2csc(N3C[C@H]4CC[C@@H](C3)[C@H]4C(=O)O)n2)c1
Answer label: label 0
//
Molecule: Cc1ccc(OCc2ccc(C(=O)N3CCC(O)CC3)cc2C#N)c(-c2csc(N3CCC(C(=O)O)CC3)n2)c1
Answer label: label 1
//
Molecule: Cc1ccc(OCc2ccc(C(=O)N3CCCCC3)cc2C)c(-c2csc(N3C4CCC3CC(C(=O)O)C4)n2)c1 (stereo not shown)
Answer label: label 0
//
Molecule: Cc1ccc(OCc2ccc(C(=O)N3CCCCC3)cc2C)c(-c2csc(N3CCC(C(=O)O)CC3C(F)(F)F)n2)c1 (stereo not shown)
Answer label: label 0

----------
- Protocol text: Assessment of solubility: HT solubility in pION buffer, UV spectrophotometry
- Test context: pION system solution buffer, pH 4.5, pH 4.5, aqueous buffer, kinetic from dmso stock, Solubility (pH 4.5), pH 4.5 buffer, 16-19 h incubation, 1.0% DMSO

Smiles entry: N#Cc1cc(CN2CCS(=O)(=O)CC2)ccc1COc1c(Cl)cccc1-c1csc(N2CCC(C(=O)O)CC2)n1
solubility: 1.8 µg/mL
//
Smiles entry: Cc1ccc(OCc2ccc(CN3C[C@@H]4C[C@H]3CO4)cc2C#N)c(-c2csc(N3C[C@H]4CC[C@@H](C3)[C@H]4C(=O)O)n2)c1
solubility: 46 µg/mL
//
Smiles entry: Cc1ccc(OCc2ccc(C(=O)N3CCOCC3)c(C)c2)c(-c2csc(N3C[C@H]4CC[C@@H](C3)[C@H]4C(=O)O)n2)c1
solubility: < 0.1 µg/mL
//
Smiles entry: Cc1cc(CN2CCS(=O)(=O)CC2)ccc1COc1c(C)cccc1-c1csc(N2CCC(C(=O)O)CC2)n1
solubility: 8.9 µg/mL
